# experimental.protocol: qHTS assay to identify small molecule agonists of H2AX - cell viability counter screen (AID 1224847);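 note: wild-type CHO-K1 cells; top concentration of the series differs between compounds; nearly all actives have a fitted effect of over 30% in size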
# condition.set: CHO-K1 viability, CellTiter-Glo luminescence, 3 h; series mostly up to 154 µM
Inconclusive results are not listed. Activity calls are given as the source filed them. Calls come from the whole dose curve.
In this exercise, the only acceptable responses are yes (active), no (inactive)

CCC(CC)Nc1c([N+](=O)[O-])cc(C)c(C)c1[N+](=O)[O-] : no
c1nc[nH]n1 : no
NC(=S)Nc1ccccc1 : no

Could you kindly confirm the outcome this assay logged for C=C(C)C(=O)OCC1CO1 (stereo not given) ?
no

Input Cc1ccc2c(c1N)C(=O)c1ccccc1C2=O
no

# credit: PubChem BioAssay (Tox21)
